- System: Escherichia coli
- EXPERIMENTAL DETAILS: Antibacterial activity against Escherichia coli BW25113 assessed as minimal inhibitory concentration by microdilution assay
- Format: functional
Provide the recorded MIC for the entries that follow.
One number for each entry, in µg/mL.

{"columns": ["CPD SMILES", "MEASUREMENT UNITS", "MIC"],
 "data": [
  ["COc1c(NC(=O)c2ccc(NC(=O)c3ccc(NC(=O)[C@H](Cc4nn[nH]n4)NC(=O)c4ccc(NC(=O)/C(C)=C/c5ccc(O)cc5)cc4)cc3)c(OC)c2O)ccc(C(=O)O)c1O", "µg/mL", 0.063],
  ["COc1c(/C=C/c2ccc(NC(=O)[C@H](CC#N)NC(=O)c3ccc(NC(=O)/C(C)=C/c4ccc(O)cc4)cc3)cc2)ccc(C(=O)Nc2ccc(C(=O)O)c(O)c2OC)c1O", "µg/mL", 0.125],
  ["COc1c(CCc2ccc(NC(=O)[C@H](CC#N)NC(=O)c3ccc(NC(=O)/C(C)=C/c4ccc(O)cc4)cc3)cc2)ccc(C(=O)Nc2ccc(C(=O)O)c(O)c2OC)c1O", "µg/mL", 0.25],
  ["COc1c(NC(=O)c2ccc(-c3cc4ccc(-c5ccc(NC(=O)[C@H](CC#N)NC(=O)c6ccc(NC(=O)/C(C)=C/c7ccc(O)cc7)cc6)cc5)cc4o3)c(OC)c2O)ccc(C(=O)O)c1O", "µg/mL", 1]
]}

Query block: Supply recorded MIC for COc1c(NC(=O)c2ccc(-c3ccc4[nH]c(-c5ccc(NC(=O)[C@H](CC#N)NC(=O)c6ccc(NC(=O)/C(C)=C/c7ccc(O)cc7)cc6)cc5)nc4c3)c(OC)c2O)ccc(C(=O)O)c1O here.
Result block: 0.25

====

Provide the recorded EC50 for the entries that follow.
- Tested on: HCC1954
- EXPERIMENTAL DETAILS: Antitumor activity against human HCC1954 cells assessed as cell growth inhibition
- Assay type: functional, cell-based
Numbers only, in µM.

{"columns": ["CPD SMILES", "EXPERIMENTAL SYSTEM", "MEASUREMENT NAME", "RECORDED VALUE"],
 "data": [
  ["CCCCCCCCCCCCCCc1cccc(O[C@H]2C[C@@H](C(=O)NCC(c3ccccc3)c3ccccc3)N(C(=O)[C@@H](NC(=O)[C@H](C)NC)C(C)(C)C)C2)c1", "HCC1954", "EC50", 19.8]
]}

Alright, here's another compound for you.
Query block: # return EC50 for CCCCCCCCCCCCCCCCCCS[C@H]1C[C@@H](C(=O)NCC(c2ccccc2)c2ccccc2)N(C(=O)[C@@H](NC(=O)[C@H](C)NC)C(C)(C)C)C1 , test system: HCC1954
Result block: 17.5

====

- System: Middle East respiratory syndrome-related coronavirus
- EXPERIMENTAL DETAILS: Antiviral activity against MERS-CoV by cell based assay
- Format: functional, organism-based
pEC50: −log10 of the molar value.
Answer false if pEC50 is under 7, and true if it is 7 or more.

// known answers, use as guide
{"columns": ["MOLECULE", "CLASSIFICATION"],
 "data": [
  ["CCCCC1CCC(OC(=O)N[C@@H](CC(C)C)C(=O)N[C@@H](C[C@H]2CCNC2=O)C(O)S(=O)(=O)O)CC1 (stereo not given in full)", "false"],
  ["CC(C)C[C@H](NC(=O)OCC1CCC(F)(F)CC1)C(=O)N[C@H](C=O)C[C@H]1CCNC1=O", "true"],
  ["CCCC1CCC(OC(=O)N[C@@H](CC(C)C)C(=O)N[C@H](C=O)C[C@H]2CCNC2=O)CC1 (stereo not given in full)", "true"]
]}

Query block: Hi, just wondering whether CC(C)C[C@H](NC(=O)OC1CCC(F)(F)CC1)C(=O)N[C@@H](C[C@H]1CCNC1=O)C(O)S(=O)(=O)O (stereo not given in full) shows pEC50 of 7 or higher.
Result block: false

====

- Tested on: FaDu
- EXPERIMENTAL DETAILS: Antitumor activity against human FaDu cells assessed as cell growth inhibition
- Type: functional, cell-based
MEASUREMENT NAME: EC50 (µM)
One number for each entry, in µM.

{"columns": ["CPD SMILES", "EXPERIMENTAL SYSTEM", "RECORDED VALUE"],
 "data": [
  ["CCCCCCCCCCCCCCCCCCS[C@H]1C[C@@H](C(=O)NCC(c2ccccc2)c2ccccc2)N(C(=O)[C@@H](NC(=O)[C@H](C)NC)C(C)(C)C)C1", "FaDu", 5.4]
]}

Alright, here's another compound for you.
Query block: # return EC50 for CCCCCCCCCCCCCCc1cccc(O[C@H]2C[C@@H](C(=O)NCC(c3ccccc3)c3ccccc3)N(C(=O)[C@@H](NC(=O)[C@H](C)NC)C(C)(C)C)C2)c1 , test system: FaDu
Result block: 1.5

====

- System: Staphylococcus aureus
- EXPERIMENTAL DETAILS: Antimicrobial activity against Staphylococcus aureus KCTC 1621 assessed as minimal inhibitory concentration incubated for 18 hrs
- Type: functional
Peptide text beside a SMILES is read from it.
MEASUREMENT NAME: MIC

{"columns": ["MOLECULE", "MIC"],
 "data": [
  ["CC(=O)N[C@@H](CCCCN)C(=O)N[C@@H](Cc1c[nH]c2ccccc12)C(=O)N[C@@H](CCCCN)C(N)=O (Ac-Lys-Trp-Lys-NH2)", "> 128 µg/mL"],
  ["CC(=O)N[C@@H](CCCCN)C(=O)N[C@@H](Cc1c[nH]c2ccccc12)C(N)=O (Ac-Lys-Trp-NH2)", "> 128 µg/mL"]
]}

Alright, here's another molecule for you.
Query block: # return MIC for CC(=O)N[C@@H](Cc1c[nH]c2ccccc12)C(=O)N[C@@H](CCCCN)C(=O)N[C@@H](Cc1c[nH]c2ccccc12)C(N)=O (Ac-Trp-Lys-Trp-NH2) , test system: Staphylococcus aureus
Result block: > 128 µg/mL
